Origin of measurements: ChEMBL document CHEMBL3217539

Overview of recorded pIC50 for various compounds
Target: Epidermal growth factor receptor (Homo sapiens, UniProt P00533, L861Q)
Sequence (P00533 25-1210 L861Q limits assumed): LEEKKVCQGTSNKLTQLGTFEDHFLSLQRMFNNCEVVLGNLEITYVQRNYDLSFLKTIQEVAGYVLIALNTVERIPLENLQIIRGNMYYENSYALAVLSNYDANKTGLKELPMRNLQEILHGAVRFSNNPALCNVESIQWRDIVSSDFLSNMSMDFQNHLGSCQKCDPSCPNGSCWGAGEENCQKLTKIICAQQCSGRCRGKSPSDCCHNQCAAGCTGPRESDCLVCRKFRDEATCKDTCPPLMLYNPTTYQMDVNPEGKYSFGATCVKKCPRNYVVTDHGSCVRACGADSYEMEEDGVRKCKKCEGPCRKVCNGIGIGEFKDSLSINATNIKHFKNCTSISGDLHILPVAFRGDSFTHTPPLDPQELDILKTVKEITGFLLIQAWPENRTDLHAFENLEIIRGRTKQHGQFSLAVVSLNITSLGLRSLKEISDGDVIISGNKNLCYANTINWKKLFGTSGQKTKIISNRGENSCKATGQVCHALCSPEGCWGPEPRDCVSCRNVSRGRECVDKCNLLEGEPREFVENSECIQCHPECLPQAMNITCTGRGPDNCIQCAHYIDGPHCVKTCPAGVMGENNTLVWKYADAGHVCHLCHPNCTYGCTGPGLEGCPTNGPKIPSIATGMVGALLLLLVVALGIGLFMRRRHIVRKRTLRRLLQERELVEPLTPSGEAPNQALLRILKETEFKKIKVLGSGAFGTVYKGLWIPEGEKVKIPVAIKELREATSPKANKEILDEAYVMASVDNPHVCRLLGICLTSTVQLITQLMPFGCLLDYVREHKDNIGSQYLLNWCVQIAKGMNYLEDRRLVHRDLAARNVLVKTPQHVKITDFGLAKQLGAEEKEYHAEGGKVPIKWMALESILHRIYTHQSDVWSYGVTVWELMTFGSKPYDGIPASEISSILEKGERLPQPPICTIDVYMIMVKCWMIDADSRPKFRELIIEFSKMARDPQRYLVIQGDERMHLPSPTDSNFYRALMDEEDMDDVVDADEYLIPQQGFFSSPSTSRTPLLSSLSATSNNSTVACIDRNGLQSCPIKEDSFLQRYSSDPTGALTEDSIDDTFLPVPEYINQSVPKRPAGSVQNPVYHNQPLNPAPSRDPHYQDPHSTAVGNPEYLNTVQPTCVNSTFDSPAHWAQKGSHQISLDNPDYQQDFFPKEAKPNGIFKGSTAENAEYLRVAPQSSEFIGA
Assay: Inhibition of EGFR kinase L861Q mutant (unknown origin) after 1.5 hrs by FRET-based Z'-Lyte assay
pIC50: −log10 of the molar value.

>  <COMPOUND>
C=CC(=O)Nc1cccc(N2C(=O)C(C(C)CC)N(C)C(=O)c3cnc(Nc4ccc(N5CCN(C)CC5)cc4OC)nc32)c1 (configuration not stated)

>  <QUAL>
=

>  <pIC50>
8.14

$$$$
>  <COMPOUND>
C=CC(=O)Nc1cccc(N2C(=O)C3CCCCN3C(=O)c3cnc(Nc4ccc(N5CCN(C)CC5)cc4OC)nc32)c1 (configuration not stated)

>  <QUAL>
=

>  <pIC50>
8.56

$$$$
>  <COMPOUND>
C=CC(=O)Nc1cccc(N2C(=O)C(C)N(C)C(=O)c3cnc(Nc4ccc(N5CCN(C)CC5)cc4OC)nc32)c1 (configuration not stated)

>  <QUAL>
=

>  <pIC50>
8.22

$$$$
>  <COMPOUND>
C=CC(=O)Nc1cccc(N2C(=O)CN(C)C(=O)c3cnc(Nc4ccc(N5CCN(C)CC5)cc4OC)nc32)c1

>  <QUAL>
=

>  <pIC50>
7.65

$$$$
>  <COMPOUND>
C=CC(=O)Nc1cccc(N2C(=O)CN(c3ccccc3)C(=O)c3cnc(Nc4ccc(N5CCN(C)CC5)cc4OC)nc32)c1

>  <QUAL>
=

>  <pIC50>
8.16

$$$$
>  <COMPOUND>
C=CC(=O)Nc1cccc(N2C(=O)C(Cc3ccc(OC)cc3)N(C)C(=O)c3cnc(Nc4ccc(N5CCN(C)CC5)cc4OC)nc32)c1 (configuration not stated)

>  <QUAL>
=

>  <pIC50>
7.01

$$$$
>  <COMPOUND>
C=CC(=O)Nc1cccc(N2C(=O)C3CCCN3C(=O)c3cnc(Nc4ccc(N5CCN(C)CC5)cc4OC)nc32)c1 (configuration not stated)

>  <QUAL>
<

>  <pIC50>
6.00

$$$$
>  <COMPOUND>
C=CC(=O)Nc1cccc(N2C(=O)C(c3ccccc3)N(C)C(=O)c3cnc(Nc4ccc(N5CCN(C)CC5)cc4OC)nc32)c1 (configuration not stated)

>  <QUAL>
=

>  <pIC50>
7.11

$$$$
>  <COMPOUND>
C=CC(=O)Nc1cccc(N2C(=O)C(Cc3ccccc3)N(C)C(=O)c3cnc(Nc4ccc(N5CCN(C)CC5)cc4OC)nc32)c1 (configuration not stated)

>  <QUAL>
=

>  <pIC50>
8.28

$$$$
>  <COMPOUND>
C=CC(=O)Nc1cccc(N2C(=O)CN(Cc3ccccc3)C(=O)c3cnc(Nc4ccc(N5CCN(C)CC5)cc4OC)nc32)c1

>  <QUAL>
=

>  <pIC50>
8.08

$$$$
>  <COMPOUND>
C=CC(=O)Nc1cccc(N2C(=O)C(C(C)C)N(C)C(=O)c3cnc(Nc4ccc(N5CCN(C)CC5)cc4OC)nc32)c1 (configuration not stated)

>  <QUAL>
=

>  <pIC50>
7.62

$$$$
>  <COMPOUND>
C=CC(=O)Nc1cccc(N2C(=O)C(Cc3ccc(F)cc3)N(C)C(=O)c3cnc(Nc4ccc(N5CCN(C)CC5)cc4OC)nc32)c1 (configuration not stated)

>  <QUAL>
=

>  <pIC50>
8.12

$$$$
